Sourced from patent US20230357429A1

# target.system: T1, TCE-27 (anti-CD3 scFv Y234A; anti-TROP2 wt)
# T1 construct: scFv on the Fab heavy chain
# protocol.notes: competition ELISA, TCE on captured CD3
Where no end group is shown, it is not given here.
quantity: IC50
Value and unit, in that order.

Kindly note the recorded IC50 for VYCGPEFDESVGCA (cysteine pairing not given here; also: biotinylated, site not given here, mask peptide for the CD3 scFv) [Peptide-73] , which is 620 nM
